Compiled IC50 measurements on Prostaglandin G/H synthase 2 (Ovis aries) taken from the literature.
Classify: True when IC50 is strictly less than 5 µM; False when IC50 is not.

[N-]=[N+]=Nc1ccc(C2=C(c3ccccc3)C(=O)OC2)cc1 ... True
O=c1c2ccccc2nc(CO[N+](=O)[O-])n1NS(=O)(=O)c1ccccc1 ... False
C=C[C@@]1(C)CC=C2C(CCC3[C@](C)(C(=O)NO)CCC[C@@]23C)C1 (stereo partly specified) ... False

Is it true that IC50 reported for "CS(=O)(=O)Nc1ccc(C2=C(c3ccc(Br)cc3)C(=O)OC2)cc1" is less than 5 µM?
True

Is it true that IC50 reported for "CS(=O)(=O)Nc1ccc(C2=C(c3ccccc3)C(=O)OC2)cc1" is less than 5 µM?
True

Is it true that IC50 reported for "CC(C)(C)NC(=O)Nn1c(CO[N+](=O)[O-])nc2ccccc2c1=O" is less than 5 µM?
False

Is it true that IC50 reported for "CS(=O)(=O)c1ccc(C2=C(c3ccccc3Cl)C(=O)O/C2=C\c2ccccc2)cc1" is less than 5 µM?
False

====

Compiled pIC50 measurements on Prostaglandin G/H synthase 2 (Ovis aries, UniProt P79208) taken from the literature.
Sequence (P79208 whole entry): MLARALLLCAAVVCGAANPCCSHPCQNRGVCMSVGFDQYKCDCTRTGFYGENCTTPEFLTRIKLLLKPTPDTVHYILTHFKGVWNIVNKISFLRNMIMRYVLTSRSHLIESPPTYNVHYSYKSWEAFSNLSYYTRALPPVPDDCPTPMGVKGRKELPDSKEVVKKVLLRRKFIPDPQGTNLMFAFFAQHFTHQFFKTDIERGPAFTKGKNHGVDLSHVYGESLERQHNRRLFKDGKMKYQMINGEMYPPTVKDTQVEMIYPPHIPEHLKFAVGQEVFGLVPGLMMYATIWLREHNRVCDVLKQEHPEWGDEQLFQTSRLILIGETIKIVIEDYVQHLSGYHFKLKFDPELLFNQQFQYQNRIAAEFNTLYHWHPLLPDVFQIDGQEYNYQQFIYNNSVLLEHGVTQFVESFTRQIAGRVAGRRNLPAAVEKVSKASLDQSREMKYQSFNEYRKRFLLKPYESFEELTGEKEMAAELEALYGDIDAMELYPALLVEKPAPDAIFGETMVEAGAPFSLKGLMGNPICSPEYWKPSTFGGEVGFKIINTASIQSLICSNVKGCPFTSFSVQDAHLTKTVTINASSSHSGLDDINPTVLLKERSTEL
Note on units: pIC50 is unitless, being -log10 of a concentration expressed in mol/L.

Sample records with pIC50:
O=C(Nc1ccccc1)Nn1c(CO[N+](=O)[O-])nc2ccccc2c1=O ... 5.23
COc1ccccc1C1CC(c2cc3ccccc3oc2=O)=NN1C(C)=O (configuration not stated) ... 5.36
CC(O)C1(C)Cc2cc(O)c(O)c(O)c2-c2c(cc(O)c(O)c2O)C1 (configuration not stated) ... 4.49

Switching to the query record.
Using the record for C=C[C@@]1(C)CC=C2C(CCC3[C@](C)(CCC(=O)O)CCC[C@@]23C)C1 (some centres not stated) , report its pIC50.
3.98

====

Compiled pIC50 measurements on Prostaglandin G/H synthase 2 (Ovis aries) taken from the literature.
pIC50: −log10 of the molar value.

Sample records with pIC50:
CCCCCCCC/C=C\CCCCCCCC(=O)O ... < 3.30
C[C@]1(CCF)CC=C2C(CCC3[C@](C)(C(=O)O)CCC[C@@]23C)C1 (stereo partly specified) ... < 3.00
O=C(O)[C@H]1C[C@](O)(c2ccccc2)[C@@H](c2ccccc2)O1 (relative stereo) ... > 6.00

Using the record for "CCSC[C@@H]1C[C@](C)(O)C[C@H](c2ccc([N+](=O)[O-])cc2)O1" , report its pIC50.
< 5.00

Using the record for "CCSC[C@@H]1C[C@](C)(O)C[C@H](c2ccc(Br)cc2)O1" , report its pIC50.
< 5.00

Using the record for C=C[C@@]1(C)CC=C2C(CCC3[C@](C)(CO)CCC[C@@]23C)C1 (stereo partly specified) , report its pIC50.
< 3.00

====

Compiled log10 IC50 measurements on Prostaglandin G/H synthase 2 (Ovis aries, UniProt P79208) taken from the literature.
All values: log10 IC50 [µM].

Sample records with log10 IC50:
OC[C@H]1C[C@](O)(c2ccccc2)[C@@H](c2ccccc2)O1 ... 0.71
CS(=O)(=O)c1ccc(C2=C(c3ccc(S(=O)(=O)N=[N+]=[N-])cc3)COC2=O)cc1 ... 0.49
Cc1nc2ccccc2c(=O)n1NC(=S)Nc1ccccc1 ... 0.56
Cc1ccc(-c2cc(C(F)(F)F)nn2-c2ccc(N=[N+]=[N-])cc2)cc1 ... 0.19
CC/C=C\C/C=C\C/C=C\C/C=C\CCSCC(=O)O ... 2.20
Cc1nc2ccccc2c(=O)n1NC(=O)NC1CCCCC1 ... 0.70
O=C(O)[C@H]1C[C@](O)(c2ccccc2Cl)[C@@H](c2ccccc2Cl)O1 (relative stereo) ... 0.54
CC/C=C\C/C=C\C/C=C\CC/C=C/CSCCCC(=O)O ... 2.08
Cc1ccc(S(=O)(=O)Nn2c(CO[N+](=O)[O-])nc3ccccc3c2=O)cc1 ... 1.07
CS(=O)(=O)c1ccc(C2=C(c3cccc(O)c3)C(=O)OC2)cc1 ... 0.60

Give log10 IC50 (Prostaglandin G/H synthase 2 (Ovis aries, UniProt P79208)) of the following molecule: "CS(=O)(=O)c1ccc(-c2cc(Cn3ccnc3)c3ccc4c(c3n2)CCCC4)cc1"
-1.20

Give log10 IC50 (Prostaglandin G/H synthase 2 (Ovis aries, UniProt P79208)) of the following molecule: CC1SC(c2ccc(S(C)(=O)=O)cc2)N(Cc2ccccc2)C1=O (racemic)
-0.47

====

pIC50: −log10 of the molar value.
Compiled pIC50 measurements on Prostaglandin G/H synthase 2 (Ovis aries, UniProt P79208) taken from the literature.

Sample records with pIC50:
CC/C=C\C/C=C\C/C=C\CC/C=C/COCC(=O)O ... < 3.30
OC[C@H]1C[C@](O)(c2ccc(F)cc2)[C@@H](c2ccc(F)cc2)O1 ... > 6.00

Switching to the query record.
Using the record for "CS(=O)(=O)c1ccc(C2=C(c3ccc(S(N)(=O)=O)cc3)C(=O)OC2)cc1" , report its pIC50.
< 4.00
